tested on: Bel-7402 (human hepatoma cells); assay: MTT cancer cell growth inhibition; type: cell-based; settings: Homo sapiens, Bel-7402, 72 h, MTT, 72 hours incubation, Bel-7402 cells; read-out: GI50 Bel-7402
endpoint-name: GI50 (nM)

These solved cases illustrate the format of a correct answer.
INSERT INTO measurements (molecule, recorded_measurement) VALUES
  ('C/C=C1\NC(=O)c2cccc(n2)CNC(=O)C[C@@H](/C=C/CCSC(C)=O)OC(=O)[C@H](CCCCNC(=O)OCC2c3ccccc3-c3ccccc32)NC1=O [Compound 16]', 91),
  ('CCCCCCCC(=O)SCC/C=C/[C@@H]1CC(=O)NCc2cccc(n2)C(=O)NCC(=O)N[C@@H](C(C)C)C(=O)O1 [Compound 246]', 38),
  ('C=C1NC(=O)c2cccc(n2)CNC(=O)C[C@@H](/C=C/CCSC(=O)CCCCCCC)OC(=O)[C@H](C(C)C)NC1=O [Compound 244]', 29),
  ('C/C=C1\NC(=O)c2ccc(SC)c(n2)CNC(=O)C[C@@H](/C=C/CCSC(=O)CCC)OC(=O)[C@H](C(C)C)NC1=O [Compound 161]', 47),
  ('CC(=O)SCC/C=C/[C@@H]1CC(=O)NCc2nc(ccc2F)C(=O)NC(=C(C)C)C(=O)N[C@@H](C(C)C)C(=O)O1 [Compound 89]', 83),
  ('C/C=C1\NC(=O)c2ncc(F)c(n2)CNC(=O)C[C@@H](/C=C/CCSC(C)=O)OC(=O)[C@H](C(C)C)NC1=O [Compound 97]', 59),
  ('C/C=C1\NC(=O)c2cccc(n2)CNC(=O)C[C@@H](/C=C/CCS)OC(=O)[C@H](Cc2cccc3ccccc23)NC1=O [Compound 123]', 27),
  ('C/C=C1\NC(=O)c2nc(ccc2F)CNC(=O)C[C@@H](/C=C/CCS)OC(=O)[C@H](Cc2ccccc2)NC1=O [Compound 115]', 36);

A = C/C=C1\NC(=O)c2cccc(n2)CNC(=O)C[C@@H](/C=C/CCSC(C)=O)OC(=O)[C@H](Cc2cccc3ccccc23)NC1=O [Compound 17]
B = C/C=C1\NC(=O)c2nc(ccc2SCC)CNC(=O)C[C@@H](/C=C/CCSC(=O)CCCCCC)OC(=O)[C@H](C(C)C)NC1=O [Compound 250]
Endpoint returns whichever of A and B has the numerically higher GI50. Label of pick, please.
A

1 = C/C=C1\NC(=O)c2nc(ccc2F)CNC(=O)C[C@@H](/C=C/CCS)OC(=O)[C@H](Cc2ccc(O)cc2)NC1=O [Compound 128]
2 = C/C=C1\NC(=O)c2cccc(n2)CNC(=O)C[C@@H](/C=C/CCSC(C)=O)OC(=O)[C@H](Cc2ccccc2)NC1=O [Compound 13]
Endpoint returns whichever of 1 and 2 has the numerically higher GI50. Label of pick, please.
2

###

test system: Bel-7402 (human hepatoma cells); assay: MTT cancer cell growth inhibition; assay type: cell-based; conditions: MTT, 72 hours incubation, Bel-7402 cells; read-out: GI50 Bel-7402
endpoint-name: GI50 (nM)

INSERT INTO results (compound, recorded_measurement) VALUES
  ('C/C=C1\NC(=O)c2ccc(SC)c(n2)CNC(=O)C[C@@H](/C=C/CCSC(C)=O)OC(=O)[C@H](C)NC1=O [Compound 185]', 91),
  ('C/C=C1\NC(=O)c2nc(ccc2F)CNC(=O)C[C@@H](/C=C/CCSC(C)=O)OC(=O)[C@H](CC)NC1=O [Example 57]', 73);

I = C/C=C1\NC(=O)c2cc(SC)cc(n2)CNC(=O)C[C@@H](/C=C/CCSC(C)=O)OC(=O)[C@H](C)NC1=O [Compound 214]
II = C/C=C1\NC(=O)c2ccc(SC)c(n2)CNC(=O)C[C@@H](/C=C/CCSC(C)=O)OC(=O)[C@H](C(C)C)NC1=O [Compound 209]
Between I and II , which one has the lower reported GI50 value? Label of pick, please.
II
(II: 13 nM, I: 71 nM)

Data credit: patent US10065990B2
